Where these numbers come from: patent US8952034B2

Please go through the items and note down their inhibition at 1 µM.
Assay target: wild-type human cardiac sodium channel, hNav1.5 (Homo sapiens, UniProt Q14524)
Sequence (Q14524 whole entry): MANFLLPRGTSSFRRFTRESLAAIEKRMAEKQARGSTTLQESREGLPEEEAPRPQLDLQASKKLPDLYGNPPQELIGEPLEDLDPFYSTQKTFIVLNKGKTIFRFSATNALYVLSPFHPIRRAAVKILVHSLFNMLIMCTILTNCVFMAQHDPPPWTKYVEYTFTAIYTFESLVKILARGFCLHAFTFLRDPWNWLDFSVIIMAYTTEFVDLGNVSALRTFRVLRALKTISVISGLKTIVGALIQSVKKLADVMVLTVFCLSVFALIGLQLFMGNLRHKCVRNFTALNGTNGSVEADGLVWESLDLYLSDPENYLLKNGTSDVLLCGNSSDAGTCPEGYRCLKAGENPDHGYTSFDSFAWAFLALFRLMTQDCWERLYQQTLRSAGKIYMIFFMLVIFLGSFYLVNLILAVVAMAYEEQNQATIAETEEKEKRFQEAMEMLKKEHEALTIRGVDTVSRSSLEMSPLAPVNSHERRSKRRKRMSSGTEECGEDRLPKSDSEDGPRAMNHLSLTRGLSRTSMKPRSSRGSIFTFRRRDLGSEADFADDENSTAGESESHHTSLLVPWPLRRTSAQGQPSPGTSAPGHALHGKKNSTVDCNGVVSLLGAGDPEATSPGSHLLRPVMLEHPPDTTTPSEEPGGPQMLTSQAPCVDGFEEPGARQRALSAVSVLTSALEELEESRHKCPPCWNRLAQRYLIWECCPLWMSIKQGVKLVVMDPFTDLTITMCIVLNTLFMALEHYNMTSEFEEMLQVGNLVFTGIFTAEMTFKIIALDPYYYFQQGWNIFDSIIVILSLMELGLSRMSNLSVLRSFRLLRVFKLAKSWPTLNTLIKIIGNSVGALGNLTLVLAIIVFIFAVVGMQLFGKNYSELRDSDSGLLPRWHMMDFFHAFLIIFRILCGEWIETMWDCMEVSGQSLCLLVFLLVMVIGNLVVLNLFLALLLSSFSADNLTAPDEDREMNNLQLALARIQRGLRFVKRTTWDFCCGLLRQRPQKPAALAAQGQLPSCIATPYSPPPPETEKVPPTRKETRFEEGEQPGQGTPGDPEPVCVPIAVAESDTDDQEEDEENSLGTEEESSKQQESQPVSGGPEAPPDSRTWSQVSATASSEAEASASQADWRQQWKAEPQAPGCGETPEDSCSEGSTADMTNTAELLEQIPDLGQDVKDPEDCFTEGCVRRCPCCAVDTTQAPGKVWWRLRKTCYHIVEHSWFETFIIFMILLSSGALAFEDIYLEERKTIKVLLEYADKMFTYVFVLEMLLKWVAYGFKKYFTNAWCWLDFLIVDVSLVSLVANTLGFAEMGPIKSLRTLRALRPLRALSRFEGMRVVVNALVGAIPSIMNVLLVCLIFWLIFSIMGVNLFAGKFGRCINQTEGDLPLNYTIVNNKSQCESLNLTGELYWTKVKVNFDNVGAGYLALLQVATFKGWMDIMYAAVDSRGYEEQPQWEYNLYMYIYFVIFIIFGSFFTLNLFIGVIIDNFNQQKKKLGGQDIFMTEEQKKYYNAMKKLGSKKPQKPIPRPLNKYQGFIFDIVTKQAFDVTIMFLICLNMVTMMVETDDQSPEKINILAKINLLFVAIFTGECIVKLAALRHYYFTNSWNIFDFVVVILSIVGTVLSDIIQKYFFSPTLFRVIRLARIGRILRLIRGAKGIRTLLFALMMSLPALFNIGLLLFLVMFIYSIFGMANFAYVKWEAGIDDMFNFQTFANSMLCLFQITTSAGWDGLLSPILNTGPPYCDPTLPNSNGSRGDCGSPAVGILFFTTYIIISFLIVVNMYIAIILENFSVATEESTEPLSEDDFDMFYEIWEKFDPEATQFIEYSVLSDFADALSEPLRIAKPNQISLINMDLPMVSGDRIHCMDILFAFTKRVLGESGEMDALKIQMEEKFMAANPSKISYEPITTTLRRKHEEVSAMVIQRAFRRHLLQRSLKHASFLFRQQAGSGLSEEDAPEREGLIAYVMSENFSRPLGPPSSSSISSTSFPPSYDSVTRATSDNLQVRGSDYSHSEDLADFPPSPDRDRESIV
Test details: Late INa screening assay (automated whole cell patch clamp, PatchXpress)
Assay type: cell-based
Study conditions: compound at 1 μM; HEK293 cells expressing hNav1.5; late INa generated with 10 μM Tefluthrin (or 50 nM ATX II); read-out: LateINa_1 uM (percent block of late INa)
Answer format reminder: number followed by unit.

# batch size: 5; output inhibition at 1 µM per entry
1. CCOC(=O)c1cccc(-c2nnc3ccc(-c4ccc(OC(F)(F)F)cc4)cn23)c1 [BHN-87]
2. CCOC(=O)COCC(F)(F)c1nnc2ccc(-c3ccc(OC(F)(F)F)cc3)cn12 [BHN-167]
3. CNC(=O)c1cc(-c2ccc3nnc(C(F)(F)F)n3c2)ccc1OC(F)(F)F [BHN-174]
4. O=[N+]([O-])c1cc(F)ccc1Oc1ccc(-c2ccc3nnc(C(F)(F)F)n3c2)cc1 [BHN-110]
5. FC(F)(F)c1nnc2ccc(-c3nnc(C4CC4)s3)cn12 [BHN-96]

1: 38.9%; 2: 45.8%; 3: 16%; 4: 18.2%; 5: 20.3%

###

Assay target: wild-type human cardiac sodium channel, hNav1.5 (Homo sapiens, UniProt Q14524)
Test details: Late INa screening assay (automated whole cell patch clamp, PatchXpress)
Format: cell-based
Study conditions: compound at 1 μM; HEK293 cells expressing hNav1.5; late INa generated with 10 μM Tefluthrin (or 50 nM ATX II); read-out: LateINa_1 uM (percent block of late INa)
Description: The late sodium current (Late INa) and peak sodium current (Peak INa) assays are performed on an automated electrophysiology platform, PatchXpress 7000A (MDS Analytical Technologies, Sunnyvale, Calif.), which uses the whole cell patch clamp technique to measure currents through the cell membrane of up to 16 cells at a time. […]
Please go through the items and note down their inhibition at 1 µM.
One number for each entry, in %.

Below: 3 compounds and their reported inhibition at 1 µM.
Compound: Cc1nc(COC(F)(F)c2nnc3ccc(-c4ccc(OC(F)(F)F)cc4)cn23)c(C)o1
Assay target: wild-type human cardiac sodium channel, hNav1.5 (Homo sapiens, UniProt Q14524)
inhibition at 1 µM (%): 73
//
Compound: FC(F)(F)c1nnc2ccc(-c3ccc(NC(c4ccccc4)C(F)(F)F)cc3)cn12 (stereo not drawn)
Assay target: wild-type human cardiac sodium channel, hNav1.5 (Homo sapiens, UniProt Q14524)
inhibition at 1 µM (%): 23.4
//
Compound: OCc1nnc2ccc(-c3ccc(OC(F)(F)F)cc3)cn12
Assay target: wild-type human cardiac sodium channel, hNav1.5 (Homo sapiens, UniProt Q14524)
inhibition at 1 µM (%): 21.9

# batch size: 6; output inhibition at 1 µM per entry
1. FC(F)(F)Oc1ccc(-c2ccc3nnc(Sc4ccccc4)n3c2)cc1
2. Cc1cccc(C)c1OCCOC(F)(F)c1nnc2ccc(-c3ccc(OC(F)(F)F)cc3)cn12
3. FC(F)(F)Oc1ccc(-c2ccc3nnc(C(F)(F)OCc4ncccn4)n3c2)cc1
4. CC(OCc1nnc2ccc(-c3ccc(OC(F)(F)F)cc3)cn12)c1ccccc1 (stereo not drawn)
5. FC(F)(F)Oc1ccc(-c2ccc3nnc(C(F)(F)OCc4cccnn4)n3c2)cc1
6. FC(F)(F)Oc1ccc(-c2ccc3nnc(Oc4ccccc4)n3c2)cc1

1. 66.2
2. 68
3. 38.8
4. 85.8
5. 26.1
6. 81.4

###

Assay target: wild-type human cardiac sodium channel, hNav1.5 (Homo sapiens, UniProt Q14524)
Test details: Late INa screening assay (automated whole cell patch clamp, PatchXpress)
Format: cell-based
Study conditions: compound at 1 μM; HEK293 cells expressing hNav1.5; late INa generated with 10 μM Tefluthrin (or 50 nM ATX II); read-out: LateINa_1 uM (percent block of late INa)
Please use 1.0 whenever inhibition at 1 µM is not below 60%, and 0.0 whenever it is.

Smiles string: FC(F)(F)Oc1ccc(-c2ccc3nnc(C(F)(F)OCc4ccc(-n5cccn5)nc4)n3c2)cc1
Group: 0.0
//
Smiles string: FC(F)(F)Oc1ccc(-c2ccc3nnc(COCc4ccccn4)n3c2)cc1
Group: 0.0
//
Smiles string: FC(F)(F)Oc1ccc(-c2ccc3nnc(C(F)(F)OCc4cccnc4)n3c2)cc1
Group: 0.0
//
Smiles string: FC(F)(F)Oc1ccc(-c2ccc3nnc(-c4ccc(OC(F)(F)F)cc4)n3c2)cc1
Group: 1.0
//
Smiles string: N#CC1(c2ccc(-c3ccc4nnc(C(F)(F)F)n4c3)cc2)CCCC1
Group: 0.0

Textbook exercise: given the entry FC(F)(F)Oc1ccc(-c2ccc3nnc(C(F)(F)OCc4cc(C(F)(F)F)nc5ccccc45)n3c2)cc1 , state whether its inhibition at 1 µM is greater than or equal to 60%.
0.0

What about this molecule? FC(F)(F)Oc1ccc(-c2ccc3nnc(C(F)(F)OCc4ccccn4)n3c2)cc1
0.0

What about this molecule? O=C(NCC(F)(F)c1nnc2ccc(-c3ccc(OC(F)(F)F)cc3)cn12)c1ccccc1
0.0

###

Please go through the items and note down their inhibition at 1 µM.
Assay target: wild-type human cardiac sodium channel, hNav1.5 (Homo sapiens, UniProt Q14524)
Test details: Late INa screening assay (automated whole cell patch clamp, PatchXpress)
Format: cell-based
Study conditions: compound at 1 μM; HEK293 cells expressing hNav1.5; late INa generated with 10 μM Tefluthrin (or 50 nM ATX II); read-out: LateINa_1 uM (percent block of late INa)
Answers are plain numbers, in %.

Compound: CC(C)(O)C(F)(F)c1nnc2ccc(-c3ccc(OC(F)(F)F)cc3)cn12 [BHN-176]
inhibition at 1 µM, %: 15.2
--
Compound: CC(OC(F)(F)c1cccnc1)c1nnc2ccc(-c3ccc(OC(F)(F)F)cc3)cn12 (stereo not drawn) [BHN-249]
inhibition at 1 µM, %: 22.7
--
Compound: COc1nnc2ccc(-c3ccc(OC(F)(F)F)cc3)cn12 [BHN-185]
inhibition at 1 µM, %: 29.1
--
Compound: FC(F)(F)Oc1ccc(-c2ccc3nnc(C(F)(F)OCc4noc(-c5ccccc5)n4)n3c2)cc1 [BHN-323]
inhibition at 1 µM, %: 73

# batch size: 6; output inhibition at 1 µM per entry
1. CCC(O)(CC)C(F)(F)c1nnc2ccc(-c3ccc(OC(F)(F)F)cc3)cn12 [BHN-197]
2. Cc1ccccc1Oc1nnc2ccc(-c3ccc(OC(F)(F)F)cc3)cn12 [BHN-273]
3. CC(C)c1nnc2ccc(-c3cc(F)c(Oc4ccccc4)c(F)c3)nn12 [BHN-201]
4. FC(F)(F)Oc1ccc(-c2ccc3nnc(C(F)(F)OCc4ccccc4-n4cncn4)n3c2)cc1 [BHN-311]
5. CC(OC(F)(F)c1nnc2ccc(-c3ccc(OC(F)(F)F)cc3)cn12)c1ccc(Cl)cc1Cl (stereo not drawn) [BHN-247]
6. COc1cc(-c2ccc(OC(F)(F)F)cc2)cn2c(C(F)F)nnc12 [BHN-126]

1: 25.4; 2: 68.7; 3: 29.7; 4: 47.3; 5: 74.1; 6: 26.9

###

Please go through the items and note down their inhibition at 10 µM.
Assay target: wild-type human cardiac sodium channel, hNav1.5 (Homo sapiens, UniProt Q14524)
Test details: Late INa screening assay (automated whole cell patch clamp, PatchXpress)
Assay type: cell-based
Study conditions: compound at 10 μM; HEK293 cells expressing hNav1.5; late INa generated with 10 μM Tefluthrin (or 50 nM ATX II); read-out: LateINa_10 uM (percent block of late INa)
Numbers only, in %.

Smiles string: CC(=O)Nc1cc(-c2ccc(OC(F)(F)F)cc2C)cn2c(C)nnc12
inhibition at 10 µM / %: 31.9
//
Smiles string: FC(F)c1nnc2cnc(-c3ccc(Oc4ccccc4)cc3)cn12
inhibition at 10 µM / %: 54.6
//
Smiles string: FC(F)c1nnc2ccc(-c3ccc(OC(F)(F)F)cc3)nn12
inhibition at 10 µM / %: 79.7
//
Smiles string: FC(F)(F)Oc1ccc(-c2ccc3nnc(C(F)(F)F)n3c2)cc1
inhibition at 10 µM / %: 87.7

# batch size: 6; output inhibition at 10 µM per entry
1. FC(F)(F)c1ccc(-c2ccc3nnc(C(F)(F)F)n3c2)cn1
2. FC(F)(F)Cc1nnc2ccc(-c3ccc(Oc4ccccc4)cc3)nn12
3. c1ccc(Oc2cccc(-c3ccc4ncnn4c3)c2)cc1
4. Cn1ncc2cc(-c3ccc4nnc(C(F)(F)F)n4c3)ccc21
5. CCNc1nnc2ccc(-c3ccc(OC(F)(F)F)cc3)cn12
6. CCc1nnc2ccc(-c3ccc(Oc4ccccc4)cc3)nn12

1. 46.7
2. 82.6
3. 73.6
4. 39.8
5. 38.2
6. 79.3

# batch size: 6; output inhibition at 10 µM per entry
1. Nc1cc(-c2ccc(OC(F)(F)F)cc2)cn2c(-c3ccccc3)nnc12
2. CCOC(=O)c1cccc(-c2ccc3nnc(-c4cccc(C(=O)OCC)c4)n3c2)c1
3. FC(F)(F)Oc1ccc(-c2ccc3nnc(-c4ccc(OC(F)(F)F)cc4)n3c2)cc1
4. FC(F)c1nnc2cnc(-c3ccc(OC(F)(F)F)cc3)cn12
5. c1ccc(Oc2ccc(-c3ccc4nnc(C5CC5)n4n3)cc2)cc1
6. N#Cc1ccc(-c2nnc3ccc(-c4ccc(OC(F)(F)F)cc4)nn23)cc1

1. 44.9
2. 59
3. 90.7
4. 74.7
5. 74.3
6. 43.8

# batch size: 5; output inhibition at 10 µM per entry
1. Cc1nnc(-c2ccc(-c3ccc4nnc(C(F)(F)F)n4c3)cc2)o1
2. FC(F)(F)COc1ccc(-c2ccc3nnc(C(F)(F)F)n3c2)cn1
3. CS(=O)(=O)c1ccc(-c2nnc3ccc(-c4ccc(Oc5ccccc5)cc4)nn23)cc1
4. FC(F)(F)Oc1ccc(-c2ccc3c(-c4ccccc4)nc(C(F)(F)F)n3c2)cc1
5. FC(F)(F)c1ncc2ccc(-c3ccc(Oc4ccccc4)cc3)cn12

[20.5, 76.3, 50.7, 33.4, 55.4]
